# measurement.target: T1, human CCR8 (human, UniProt P51685 1-355)
# T1 construct: whole, on cells; also called hCCR8
# T1 sequence (P51685 whole entry): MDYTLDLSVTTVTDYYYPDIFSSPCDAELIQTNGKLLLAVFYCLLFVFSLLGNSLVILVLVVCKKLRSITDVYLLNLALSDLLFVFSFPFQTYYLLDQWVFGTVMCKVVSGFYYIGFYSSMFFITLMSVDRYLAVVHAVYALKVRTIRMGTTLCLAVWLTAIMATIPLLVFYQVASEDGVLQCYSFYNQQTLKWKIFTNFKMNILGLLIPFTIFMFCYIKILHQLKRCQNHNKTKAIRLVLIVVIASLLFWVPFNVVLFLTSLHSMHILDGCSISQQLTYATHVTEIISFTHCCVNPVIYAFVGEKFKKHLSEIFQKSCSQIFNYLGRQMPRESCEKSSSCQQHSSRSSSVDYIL
# experimental.details: FACS, competition with AF647-human CCL1 on CHO-K1-human CCR8 cells
In this section, each of the binders is paired with its reported Max Inhibition (%).
Just the number in %, nothing appended.

A selection of reference data follows.
binder	metric.name	unit.name	recorded.measurement
149F2C10_G29V (antibody, V domains shown, NG site removed variant of 149F2C10) VH: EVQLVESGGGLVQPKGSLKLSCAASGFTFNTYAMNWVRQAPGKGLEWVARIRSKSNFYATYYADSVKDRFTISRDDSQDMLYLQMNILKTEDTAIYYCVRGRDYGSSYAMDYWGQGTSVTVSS VL: DIVMTQAAPSVPVTPGESVSISCRSSKSLLHSNVNTYLYWFLQRPGQSPQLLIYRMSNLASGVPDRFSGSGSGTAFTLRISRVEAEDVGVYYCMQHLEYPLTFGAGTKLELK	Max Inhibition (%)	%	72
149F2C10_G29I (antibody, V domains shown, NG site removed variant of 149F2C10) VH: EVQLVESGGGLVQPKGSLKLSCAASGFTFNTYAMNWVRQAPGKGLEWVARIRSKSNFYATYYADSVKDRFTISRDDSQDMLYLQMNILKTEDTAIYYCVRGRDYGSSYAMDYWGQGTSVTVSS VL: DIVMTQAAPSVPVTPGESVSISCRSSKSLLHSNINTYLYWFLQRPGQSPQLLIYRMSNLASGVPDRFSGSGSGTAFTLRISRVEAEDVGVYYCMQHLEYPLTFGAGTKLELK	Max Inhibition (%)	%	70.7

Exercise: What value of measured Max Inhibition (%) is listed for 149F2C10 (antibody, V domains shown, purified murine hybridoma antibody) VH: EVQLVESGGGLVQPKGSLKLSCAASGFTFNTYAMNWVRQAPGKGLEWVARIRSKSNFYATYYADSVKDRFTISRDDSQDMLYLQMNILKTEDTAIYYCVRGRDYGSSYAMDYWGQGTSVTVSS VL: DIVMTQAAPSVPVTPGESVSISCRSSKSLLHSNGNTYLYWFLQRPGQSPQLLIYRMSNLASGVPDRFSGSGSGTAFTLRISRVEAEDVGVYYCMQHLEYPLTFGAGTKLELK ?
Solution: 79.4
